This collection of values is drawn from the supplement of paper PMC9112550.

System: Escherichia coli TOP10
Experiment: shrunken log2 fold change of peptide-encoding DNA abundance (4.5 h post-induction vs induction); higher = less antimicrobial activity (less host growth inhibition)
Conditions: time post-induction: 4.5 h; library: site-saturation at positions 5, 18, 19, 20
measured.metric: shrunken log2 fold change

{"columns": ["residue.codes", "result"],
 "data": [
  ["RRIRGRPPRLPRPRPRPCGLPRP", 0.641],
  ["RRIRMRPPRLPRPRPRPWWRPRP", 0.494],
  ["RRIRKRPPRLPRPRPRPICIPRP", 0.163]
]}

---

The reader will find reported shrunken log2 fold change values listed item by item below.
System: Escherichia coli TOP10
Experiment: shrunken log2 fold change of peptide-encoding DNA abundance (4.5 h post-induction vs induction); higher = less antimicrobial activity (less host growth inhibition)
Conditions: time post-induction: 4.5 h; library: site-saturation at positions 5, 18, 19, 20

{"columns": ["residue.codes", "shrunken log2 fold change"],
 "data": [
  ["RRIRARPPRLPRPRPRPQCDPRP", 0.0205],
  ["RRIRVRPPRLPRPRPRPQMKPRP", -0.0794],
  ["RRIRIRPPRLPRPRPRPASHPRP", -0.106],
  ["RRIRIRPPRLPRPRPRPNPAPRP", 0.0171],
  ["RRIRRRPPRLPRPRPRPSCHPRP", -0.0344],
  ["RRIRPRPPRLPRPRPRPWIRPRP", -0.175],
  ["RRIRCRPPRLPRPRPRPELKPRP", 0.0478]
]}

---

Tested on: Escherichia coli TOP10
Experiment: shrunken log2 fold change of peptide-encoding DNA abundance (4.5 h post-induction vs induction); higher = less antimicrobial activity (less host growth inhibition)
Settings: time post-induction: 4.5 h; library: site-saturation at positions 5, 18, 19, 20
shrunken log2 fold change values by entry

{"columns": ["residue.codes", "shrunken log2 fold change"],
 "data": [
  ["RRIRGRPPRLPRPRPRPTYAPRP", 0.436],
  ["RRIRMRPPRLPRPRPRPWCLPRP", -0.208],
  ["RRIRPRPPRLPRPRPRPDNLPRP", -0.35],
  ["RRIRHRPPRLPRPRPRPITKPRP", -0.107],
  ["RRIRMRPPRLPRPRPRPTCVPRP", 0.424],
  ["RRIRKRPPRLPRPRPRPKTLPRP", 0.239]
]}

---

Tested on: Escherichia coli TOP10;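 also: peptides expressed intracellularly from a pBAD plasmid library in pooled LB shake-flask culture, induced with 0.3% L-arabinose, DNA abundance read by NGS, three biological replicates, DESeq2 with apeglm shrinkage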
Test: shrunken log2 fold change of peptide-encoding DNA abundance (4.5 h post-induction vs induction); higher = less antimicrobial activity (less host growth inhibition)
Details: time post-induction: 4.5 h; library: site-saturation at positions 5, 18, 19, 20

{"columns": ["residue.codes", "target.of.assay", "shrunken log2 fold change"],
 "data": [
  ["RRIRSRPPRLPRPRPRPGNEPRP", "Escherichia coli TOP10", -0.183],
  ["RRIRVRPPRLPRPRPRPDWFPRP", "Escherichia coli TOP10", -0.597],
  ["RRIRGRPPRLPRPRPRPPCHPRP", "Escherichia coli TOP10", 0.429],
  ["RRIRVRPPRLPRPRPRPHQRPRP", "Escherichia coli TOP10", -0.124],
  ["RRIRPRPPRLPRPRPRPMFYPRP", "Escherichia coli TOP10", -0.449],
  ["RRIRRRPPRLPRPRPRPTKLPRP", "Escherichia coli TOP10", 0.111],
  ["RRIRHRPPRLPRPRPRPRMVPRP", "Escherichia coli TOP10", -0.0236],
  ["RRIRKRPPRLPRPRPRPCGDPRP", "Escherichia coli TOP10", 0.466],
  ["RRIRGRPPRLPRPRPRPPPSPRP", "Escherichia coli TOP10", 1.22],
  ["RRIRKRPPRLPRPRPRPAFKPRP", "Escherichia coli TOP10", -0.0132],
  ["RRIRARPPRLPRPRPRPPPNPRP", "Escherichia coli TOP10", 1.35],
  ["RRIRFRPPRLPRPRPRPKLLPRP", "Escherichia coli TOP10", 0.0539],
  ["RRIRYRPPRLPRPRPRPAHIPRP", "Escherichia coli TOP10", -0.467],
  ["RRIRRRPPRLPRPRPRPNKKPRP", "Escherichia coli TOP10", -0.272],
  ["RRIRMRPPRLPRPRPRPQPHPRP", "Escherichia coli TOP10", 0.46],
  ["RRIRVRPPRLPRPRPRPHPPPRP", "Escherichia coli TOP10", 0.361]
]}
